Test: Cytotoxicity against human HuH7 cells after 2 days by MTS assay
Type: cell-based, Huh-7
readout name: CC50 at 48 h (µM)
Give bare numbers, in µM.

>>> value("N#Cc1c(-c2ccc(NS(=O)(=O)C3CC3)cc2)n(C2CCC2)c2cc(OC(F)F)ccc12")
20
>>> value("CCn1c(-c2ccc(NS(=O)(=O)CC)cc2)c(C#N)c2ccc(C(N)=O)cc21")
55
>>> value("CC(C)S(=O)(=O)Nc1ccc(-c2c(C#N)c3ccc(OC(F)F)cc3n2CC2CC2)cc1")
22
>>> value("CCn1c(-c2ccc(NC(C)=O)cc2)c(C#N)c2ccc(OC)cc21")
89

Input line: Please give the measured CC50 at 48 h for this compound: CCCS(=O)(=O)Nc1ccc(-c2c(C#N)c3ccc(OC(F)F)cc3n2CC)cc1
Output line: 26
